Consider the following compounds; for each one, report its TGI.
system: SW-620 colon; experiment: NCI tumour cell line growth inhibition, 48 h

compound	testedTarget	property	measuredValue
N#Cc1ccc(/C=N\N2C(=O)c3ccccc3C2=O)cc1	SW-620 colon	TGI	> 100 µM
O=C(CC(=O)N(C(=O)c1ccccc1)c1ccc(Cl)cc1)N/N=C\c1ccccc1O	SW-620 colon	TGI	> 100 µM
COc1ccc(CN2C(=O)C(Cc3cc(OC)c(OC)c(C)c3OC)N(C(=O)OC(C)C)C(=O)/C2=C/c2cc(OC)c(OC)c(C)c2OC)cc1 (centres undefined)	SW-620 colon	TGI	> 100 µM
CCOC(=O)c1c[nH]c2c(OCc3ccccc3)c3ccccc3c(O)c2c1=O	SW-620 colon	TGI	> 100 µM

Can you give me TGI for all of these, one by one?
1. Nc1nc(=O)n(C2CC(O)C(O)C(CO)O2)cc1F (centres undefined)
2. O=C1NCC2(CCN(Cc3ccccc3)CC2)N1
3. CCOC(=O)C1c2[nH]c3ccccc3c2CCN1C(=O)c1ccco1 (centres undefined)
4. CCCCCCCCCCCCOC1C(CNC(=O)C2OC3OC(C)(C)OC3C2NC(=O)CN2CCN(c3ccccn3)CC2)OC2OC(C)(C)OC21 (centres undefined)
5. [N-]=[N+]=Nc1ccccc1-[n+]1noc([O-])c1Br

Found:
1: > 100 µM; 2: > 100 µM; 3: > 10 µM; 4: 3.18 µM; 5: > 100 µM

Can you give me TGI for all of these, one by one?
1. COc1ccc2c(C)cc(N/N=C/c3sccc3C)nc2c1
2. CC(C)(C)[Si](C)(C)OCC1OC(n2cc(F)c(=O)[nH]c2=O)CC1O[Si](C)(C)C(C)(C)C (centres undefined)
3. C[As](C)Sc1ccnc(S[As](C)C)n1

Found:
1: 69.4 µM; 2: 23.1 µM; 3: 19.5 µM

Can you give me TGI for all of these, one by one?
1. O=C1C(c2ccc([N+](=O)[O-])cc2)=[N+]([O-])c2ccccc21
2. COc1ccc(-c2nc(N(C)C)c3ccccc3n2)cc1

Found:
> 100 µM
63.5 µM

----------
tested on: LOX IMVI melanoma; test: NCI tumour cell line growth inhibition, 48 h
property: TGI

Consider the worked cases shown below.
molecule	measuredValue
C[N+](C)(C)CCC(=O)N1C/C(=C\c2ccccc2)C(=O)/C(=C/c2ccccc2)C1	3.46 µM
COC(=O)CSc1ccccc1	> 100 µM
COc1cc(CNc2nc3ccccc3nc2-c2cccs2)cc(OC)c1OC	42.6 µM
C(=N/Nc1ncnc2nc[nH]c12)/c1ccccn1	> 100 µM
Cc1cc2cc(Cl)ccc2nc1C(=O)c1ccccc1	> 100 µM

Can you give me TGI for all of these, one by one?
1. Cc1ccc(Cl)cc1Nc1nc(C(F)(F)F)ccc1C(=O)N/N=C/c1c(Cl)cccc1Cl
2. O=C(Cn1c(C(=O)/C=C/c2ccco2)nc2ccccc21)c1ccc(Cl)cc1
3. CCOc1ccc(C2=C(Cl)c3cc(OC)c(OC)cc3C2Cl)cc1 (centres undefined)

Found:
1. 5.15 µM
2. 26.7 µM
3. 45.1 µM

----------
system: HOP-62 NSCLC; experiment: NCI tumour cell line growth inhibition, 48 h
property: TGI

Can you give me TGI for all of these, one by one?
1. O=c1n(CCCN2CCN(c3cccc(Cl)c3)CC2)nc2n1-c1ccc3ccccc3c1SC2
2. O=C1OC(c2ccccc2)C2CC3CC4(CCC3CN12)OCCO4 (stereo not drawn)
3. COc1ccc(/C=C/C(=O)c2nc3ccccc3[nH]2)cc1
4. CN(C)c1ccc(/C=C(\C#N)c2cc3ccccc3n2C)cc1
5. CCOC(=O)C1=C(OS(=O)(=O)C(F)(F)F)CCCC1
6. COc1ccccc1CNCCCN1C(=O)c2ccc3c4c(ccc(c24)C1=O)C(=O)N(CCCNCCCCNCCCCN)C3=O
7. CN1C[C@H]2[C@@H](C1=O)[C@H](c1ccc([N+](=O)[O-])cc1)ON2C
8. CC(Oc1ccccc1)C(=O)NN (stereo not drawn)

Found:
1: > 100 µM; 2: > 100 µM; 3: > 88.1 µM; 4: > 100 µM; 5: > 100 µM; 6: 7.64 µM; 7: > 100 µM; 8: > 100 µM

Can you give me TGI for all of these, one by one?
1. COc1ccc2c(C)cc(N/N=C/c3sccc3C)nc2c1
2. CC(C)(C)c1ccc(-c2nc3ccccc3c(=O)o2)cc1
3. COC(=O)C(/C(=N/N)C(=O)Nc1ccc(C)c(C)c1)c1nc2ccc(Cl)cc2[nH]c1=O (stereo not drawn)

Found:
28.4 µM
> 100 µM
> 100 µM

----------
tested on: SNB-75 CNS; assay: NCI tumour cell line growth inhibition, 48 h
Consider the following compounds; for each one, report its TGI.
Answers are plain numbers, in µM.

Consider the worked cases shown below.
compound	property	measuredValue
Cc1cc2cc(Cl)ccc2nc1C(=O)c1ccccc1	TGI	81.9
O=C(CCCCCCC(=O)N/N=C/c1ccc(N(c2ccccc2)c2ccccc2)cc1)NO	TGI	14.2
C/C(O)=C(/C=N\C(=S)Nc1ccc(Cl)c(Cl)c1)C(=O)Nc1ccccc1C	TGI	66.3
O=S(=O)(O)c1ccc(Cl)cc1.[Cd]	TGI	97.2
C(=N/Nc1ncnc2nc[nH]c12)/c1ccccn1	TGI	35.1
O=c1c2c(sc3ccccc13)NCN(CCc1ccccc1)C2	TGI	78.2

Can you give me TGI for all of these, one by one?
1. O=C(c1ccccc1)c1ccc(Cl)c([N+](=O)[O-])c1
2. COCC[N+](CCNC(=O)c1cccc2c(N)c3cccc(C)c3nc12)(CCOC)Cc1ccc([N+](=O)[O-])cc1
3. C[C@@H]1CCC2[C@@H](C)[C@H](O[C@H]3O[C@@H]4O[C@@]5(C)CCC6[C@H](C)CCC([C@H]3C)[C@]64OO5)O[C@@H]3O[C@@]4(C)CCC1[C@@]23OO4 (stereo partly specified)
4. COc1ccc2nc3cc(Cl)ccc3c(NCCC(=O)OCC(O)C(O)C(O[C@H](C)C(=O)NC(C)C(=O)NC(CCC(N)=O)C(=O)OCc3ccccc3)C(C=O)NC(C)=O)c2c1 (stereo partly specified)
5. O=c1c2cc(Br)ccc2[nH]c(=S)n1-c1ccc(Br)cc1
6. O/N=C(\C=N\O)c1ccc2c(c1)Sc1ccccc1O2
7. COC(=O)NNc1c([N+](=O)[O-])cnn(-c2ccccc2)c1=O
8. COCC1C(=O)c2cc3c(cc2C12C=CC1(C=C2)OCCO1)OCO3 (stereo unspecified)

Found:
1: 18.9; 2: 61.7; 3: 14.5; 4: 31.7; 5: 41; 6: 50.3; 7: 19.5; 8: 28.9

Lookup: GET /values?readout=TGI&system=SNB-75 CNS&item= O=C(O)CN1CCNCCN(CC(=O)O)CCNCC1
Found: 98.9

----------
Consider the following molecules; for each one, report its TGI.
tested on: HT29 colon; assay: NCI tumour cell line growth inhibition, 48 h

Consider the worked cases shown below.
molecule	testedTarget	TGI
OC(c1ccsc1)c1cc2ccccc2s1 (stereo unspecified)	HT29 colon	> 10 µM
O=C(O)CN1CCNCCN(CC(=O)O)CCNCC1	HT29 colon	> 100 µM
Cc1ccc(-c2c(C#N)c(-c3ccc([N+](=O)[O-])cc3)c(C#N)c(=O)n2NS(=O)(=O)c2ccc(C)cc2)cc1	HT29 colon	> 100 µM
CCc1ccc(CCC(=O)O)nc1	HT29 colon	> 100 µM
CNc1nnnn1C1OC(CO)C(O)C1O (stereo unspecified)	HT29 colon	> 100 µM
CC1(C)Cc2cccc(OCC(O)CN3CCN(c4ccc(F)cc4)CC3)c2O1 (stereo unspecified)	HT29 colon	17.2 µM
NCCCCC(N)C(=O)N1CCN(c2nc(N3CCCC3)c3nc(Cl)c(NCc4ccccc4)nc3n2)CC1 (stereo unspecified)	HT29 colon	38 µM
CCCCC(NC(=O)CC)C(=O)O (stereo unspecified)	HT29 colon	> 100 µM
COc1ccc(/C=C/C(=O)c2nc3ccccc3[nH]2)cc1	HT29 colon	22.9 µM
CCCCCCNC(=O)c1cc(C#Cc2cc(OC)ccc2OC)ccc1OC	HT29 colon	> 100 µM

Can you give me TGI for all of these, one by one?
1. C=C1C(=O)OC2C[C@H](C)C3CC(=O)C(C)=C3CC12 (stereo partly specified)
2. O=C1NC2OCC(O)C(O1)C2O (stereo unspecified)
3. CCOC(=O)C1(Cc2ccccc2)Cc2cc3c(cc2C1=O)CCC3 (stereo unspecified)
4. CCOc1cc(C=O)c2c(ccc3ccc(OC)c(OC)c32)c1OC
5. CC(C)=CCC[C@](C)(O)[C@H]1CC[C@]2(C)[C@@H]1[C@H](O)C[C@@H]1[C@@]3(C)CC[C@H](O[C@@H]4O[C@H](CO)[C@@H](O)[C@H](O)[C@H]4O)C(C)(C)[C@@H]3CC[C@]12C
6. CN(C)c1ccccc1CC(c1c[nH]c2ccccc12)c1c[nH]c2ccccc12

Found:
["31 µM", "> 100 µM", "> 100 µM", "> 100 µM", "32.5 µM", "17.8 µM"]
